Origin of values: patent US20260273072A1

Listing of entries alongside the reported IC50.
System: NCI-H69 cell line
procedure_text: Cell viability assay for NCI-H69 cell line (EZ-Cytox)
Type: cell-based
particulars: Homo sapiens, NCI-H69, 120 h; H69 cells, 5 days, 3000 nM to 0.46 nM
Protocol: 3. Cell Viability Assay for NCI-H69, NCI-H526 Cell Lines (1) Culture of NCI-H69, NCI-H526 Cell Lines The NCI-H69 (hereafter H69) and NCI-H526 (hereafter H526) cell lines were purchased from KCLB. (2) Treatment of Compounds of the Present Invention and Method of Cell Viability Assay After treating the compound to each well to make the total volume of 200 μl, it was cultured in a CO2 incubator (Thermo Fisher Scientific) for 5 days. […]

molecule	IC50
COc1cc(C(=O)NC2CC3(CCN(CC4CCN(c5cc(OC)c(NC6CCC(=O)NC6=O)cc5F)CC4)CC3)C2)c(F)cc1Nc1ncc2c(n1)N(C(C)C)CC(F)(F)C(=O)N2C (stereo not drawn) [Compound 52]	< 30 nM
COc1cc(C(=O)NC2CCN(CCN3CCN(c4cc(F)c(NC5CCC(=O)NC5=O)cc4F)CC3)CC2)ccc1Nc1ncc2c(n1)N(C1CCCC1)CC(F)(F)C(=O)N2C (stereo not drawn) [Compound 67]	< 30 nM
COc1cc(C(=O)NC2CCC(N(C)CC3CCN(c4ccc(C5CCC(=O)NC5=O)cc4C)CC3)CC2)ccc1Nc1ncc2c(n1)N(C1CCCC1)CC(F)(F)C(=O)N2C (stereo not drawn) [Compound 6]	< 50 nM
COc1cc(C(=O)NC2CCN(CCC3CCN(c4cc(OC)c(NC5CCC(=O)NC5=O)cc4F)CC3)CC2)c(F)cc1Nc1ncc2c(n1)N(C(C)C)CC(F)(F)C(=O)N2C (stereo not drawn) [Compound 50]	< 100 nM
COc1cc(C(=O)NN2CCC(CCN3CCN(c4cc(OC)c(NC5CCC(=O)NC5=O)cc4F)CC3)CC2)ncc1Nc1ncc2c(n1)N(C(C)C)CC(F)(F)C(=O)N2C (stereo not drawn) [Compound 46]	< 100 nM
CCN1CC(F)(F)C(=O)N(C)c2cnc(Nc3ccc(C(=O)NN4CCC(CCN5CCN(c6ccc(NC7CCC(=O)NC7=O)cc6F)CC5)CC4)cc3OC)nc21 (stereo not drawn) [Compound 28]	< 30 nM
COc1cc(C(=O)NN2CCC(CCN3CCN(c4ccc(NC5CCC(=O)NC5=O)c(F)c4F)CC3)CC2)ccc1Nc1ncc2c(n1)N(C1CCCC1)CC(F)(F)C(=O)N2C (stereo not drawn) [Compound 71]	< 30 nM
COc1cc(C(=O)NN2CCC(CCN3CCN(c4cc(C)c(NC5CCC(=O)NC5=O)cc4F)CC3)CC2)ccc1Nc1ncc2c(n1)N(C(C)C)CC(F)(F)C(=O)N2C (stereo not drawn) [Compound 75]	< 30 nM
CCN1CC(F)(F)C(=O)N(C)c2cnc(Nc3ccc(C(=O)NC4CCC(N(C)CC5CCN(c6cnc(C7CCC(=O)NC7=O)cc6C)CC5)CC4)cc3OC)nc21 (stereo not drawn) [Compound 13]	< 30 nM
COc1cc(C(=O)NC2CCN(CCN3CCN(c4ccc(NC5CCC(=O)NC5=O)c(F)c4)CC3)CC2)ccc1Nc1ncc2c(n1)N(C1CCCC1)CC(F)(F)C(=O)N2C (stereo not drawn) [Compound 32]	< 30 nM
COc1cc(C(=O)NN2CCC(CCN3CCN(c4cc(OC)c(NC5CCC(=O)NC5=O)cc4F)CC3)CC2)c(F)cc1Nc1ncc2c(n1)N(C1CCCC1)CC(F)(F)C(=O)N2C (stereo not drawn) [Compound 42]	< 50 nM
COc1cc(C(=O)NN2CCC(CCN3CCN(c4cc(F)c(NC5CCC(=O)NC5=O)cc4F)CC3)CC2)ccc1Nc1ncc2c(n1)N(C(C)C)CC(F)(F)C(=O)N2C (stereo not drawn) [Compound 58]	< 30 nM
COc1cc(C(=O)NN2CCC(CCN3CCN(c4ccc(NC5CCC(=O)NC5=O)cc4F)CC3)CC2)ccc1Nc1ncc2c(n1)N(C(C)C)CC(F)(F)C(=O)N2C (stereo not drawn) [Compound 29]	< 30 nM
COc1cc(C(=O)NN2CCC(CCN3CCN(c4cc(OC)c(NC5CCC(=O)NC5=O)cc4F)CC3)CC2)ccc1Nc1ncc2c(n1)N(C1CCCC1)CC(F)(F)C(=O)N2C (stereo not drawn) [Compound 40]	< 30 nM
COc1cc(N2CCN(CCC3CCN(NC(=O)c4cc(F)c(Nc5ncc6c(n5)N(C(C)C)CC(F)(F)C(=O)N6C)cc4OC)CC3)CC2)c(F)cc1NC1CCC(=O)NC1=O (stereo not drawn) [Compound 45]	< 200 nM
COc1cc(C(=O)NC2CCN(CCN3CCN(c4cc(Cl)c(NC5CCC(=O)NC5=O)cc4F)CC3)CC2)c(F)cc1Nc1ncc2c(n1)N(C1CCCC1)CC(F)(F)C(=O)N2C (stereo not drawn) [Compound 73]	< 100 nM
COc1cc(C(=O)N[C@H]2CC[C@H](CN(C)C3CCN(c4cnc(C5CCC(=O)NC5=O)cc4C)CC3)CC2)ccc1Nc1ncc2c(n1)N(C(C)C)CC(F)(F)C(=O)N2C (stereo partly drawn) [Compound 16]	< 30 nM
COc1cc(C(=O)NC2CC3(CCN(CC4CCN(c5cc(F)c(NC6CCC(=O)NC6=O)cc5F)CC4)CC3)C2)ccc1Nc1ncc2c(n1)N(C1CCCC1)CC(F)(F)C(=O)N2C (stereo not drawn) [Compound 70]	< 30 nM
COc1cc(C(=O)NC2CC3(CCN(CCC4CCN(c5ccc(NC6CCC(=O)NC6=O)cc5F)CC4)CC3)C2)ccc1Nc1ncc2c(n1)N(C(C)C)CC(F)(F)C(=O)N2C (stereo not drawn) [Compound 31]	< 30 nM
COc1cc(-c2nnc(N3CCC(CCN4CCN(c5cc(F)c(NC6CCC(=O)NC6=O)cc5F)CC4)CC3)o2)ccc1Nc1ncc2c(n1)N(C1CCCC1)CC(F)(F)C(=O)N2C (stereo not drawn) [Compound 66]	< 200 nM
COc1cc(C(=O)NC2CCN(CCN3CCN(c4cc(OC)c(NC5CCC(=O)NC5=O)cc4F)CC3)CC2)ccc1Nc1ncc2c(n1)N(C1CCCC1)CC(F)(F)C(=O)N2C (stereo not drawn) [Compound 48]	< 50 nM

---

Tested on: NCI-H69 cell line
procedure_text: Cell viability assay for NCI-H69 cell line (EZ-Cytox)
Format: cell-based
particulars: Homo sapiens, NCI-H69, 120 h; H69 cells, 5 days, 3000 nM to 0.46 nM
pIC50: −log10 of the molar value.
# pIC50 per record follows

molecule	pIC50
COc1cc(C(=O)NN2CCC(CCN3CCN(c4cc(C)c(NC5CCC(=O)NC5=O)cc4F)CC3)CC2)ccc1Nc1ncc2c(n1)N(C1CCCC1)CC(F)(F)C(=O)N2C (stereo not drawn)	> 7.52
COc1cc(C(=O)NN2CCC(CCN3CCN(c4ccc(NC5CCC(=O)NC5=O)c(OC)c4F)CC3)CC2)ccc1Nc1ncc2c(n1)N(C1CCCC1)CC(F)(F)C(=O)N2C (stereo not drawn)	> 7.52
COc1cc(C(=O)NC2CCN(CCC3CCN(c4cc(F)c(NC5CCC(=O)NC5=O)cc4F)CC3)CC2)ccc1Nc1ncc2c(n1)N(C1CCCC1)CC(F)(F)C(=O)N2C (stereo not drawn)	> 7.30

---

Examples of compounds with documented IC50 follow.
System: MRC-5 cell line
procedure_text: Cell viability assay for MRC-5 cell line (EZ-Cytox)
Format: cell-based
particulars: Homo sapiens, MRC5, 120 h; MRC-5 normal cell line, 5 days, 10000 nM to 1.52 nM; read-out: Activity: IC50 value, cell viability, MRC-5 cell line (Exemplary Compounds)

compound	IC50
COc1cc(C(=O)NN2CCC(CCN3CCN(c4cc(OC)c(NC5CCC(=O)NC5=O)cc4F)CC3)CC2)c(F)cc1Nc1ncc2c(n1)N(C1CCCC1)CC(F)(F)C(=O)N2C (centres unmarked)	> 10 µM
COc1cc(C(=O)NN2CCC(CCN3CCN(c4cc(OC)c(NC5CCC(=O)NC5=O)cc4F)CC3)CC2)c(F)cc1Nc1ncc2c(n1)N(C(C)C)CC(F)(F)C(=O)N2C (centres unmarked)	> 10 µM
COc1cc(C(=O)NN2CCC(CCN3CCN(c4ccc(NC5CCC(=O)NC5=O)c(F)c4)CC3)CC2)ccc1Nc1ncc2c(n1)N(C(C)C)CC(F)(F)C(=O)N2C (centres unmarked)	> 10 µM
COc1cc(C(=O)NN2CCC(CCN3CCN(c4ccc(NC5CCC(=O)NC5=O)c(F)c4)CC3)CC2)ccc1Nc1ncc2c(n1)N(C1CCCC1)CC(F)(F)C(=O)N2C (centres unmarked)	> 10 µM
COc1cc(C(=O)NC2CCN(CCN3CCN(c4cc(Cl)c(NC5CCC(=O)NC5=O)cc4F)CC3)CC2)c(F)cc1Nc1ncc2c(n1)N(C1CCCC1)CC(F)(F)C(=O)N2C (centres unmarked)	> 10 µM
CCN1CC(F)(F)C(=O)N(C)c2cnc(Nc3ccc(C(=O)NC4CC5(CCN(CC6CCN(c7ccc(C8CCC(=O)NC8=O)cc7F)CC6)CC5)C4)cc3OC)nc21 (centres unmarked)	> 10 µM
COc1cc(C(=O)N[C@H]2CC[C@H](N(C)CC3CCN(c4cccc(N5CCC(=O)NC5=O)c4)CC3)CC2)ccc1Nc1ncc2c(n1)N(C1CCCC1)CC(F)(F)C(=O)N2C	> 10 µM
COc1cc(C(=O)NC2CCC(N(C)CC3CCN(c4ccc(C5CCC(=O)NC5=O)nc4)CC3)CC2)ccc1Nc1ncc2c(n1)N(C(C)C)CC(F)(F)C(=O)N2C (centres unmarked)	> 10 µM
COc1cc(-c2nnc(N3CCC(CCN4CCN(c5cc(F)c(NC6CCC(=O)NC6=O)cc5F)CC4)CC3)o2)ccc1Nc1ncc2c(n1)N(C1CCCC1)CC(F)(F)C(=O)N2C (centres unmarked)	> 10 µM
COc1cc(C(=O)NC2CCN(CCN3CCN(c4cc(F)c(NC5CCC(=O)NC5=O)cc4F)CC3)CC2)ncc1Nc1ncc2c(n1)N(C1CCCC1)CC(F)(F)C(=O)N2C (centres unmarked)	> 10 µM
COc1cc(C(=O)NC2CCC(N(C)CC3CCN(c4ccc(C5CCC(=O)NC5=O)nc4)CC3)CC2)ccc1Nc1ncc2c(n1)N(C1CCCC1)CC(F)(F)C(=O)N2C (centres unmarked)	> 10 µM
